Tmax for assorted compounds
procedure_details: Pharmacokinetic evaluation in mice (IV and PO)
Type: in vivo, male CD-1 mice
experimental_conditions: male, CD-1, mouse, plasma, PO 10 mg/kg, read-out: Tmax (time to peak)
measured_attribute: Tmax (h)

cpd_smiles: COc1nc(OC)c(F)c(Cc2c[nH]c3ncc(-c4cnn(CCO)c4)cc23)c1F
display_unit: h
experimental_value: 1.3

cpd_smiles: COc1cc(OC)c(F)c(Cc2c[nH]c3ncc(-c4cnn(CCO)c4)cc23)c1F
display_unit: h
experimental_value: 1

----------
target_system: human FGFR4 (Homo sapiens, UniProt P22455)
Construct: purchased Invitrogen P3054
Sequence (P22455 22-802): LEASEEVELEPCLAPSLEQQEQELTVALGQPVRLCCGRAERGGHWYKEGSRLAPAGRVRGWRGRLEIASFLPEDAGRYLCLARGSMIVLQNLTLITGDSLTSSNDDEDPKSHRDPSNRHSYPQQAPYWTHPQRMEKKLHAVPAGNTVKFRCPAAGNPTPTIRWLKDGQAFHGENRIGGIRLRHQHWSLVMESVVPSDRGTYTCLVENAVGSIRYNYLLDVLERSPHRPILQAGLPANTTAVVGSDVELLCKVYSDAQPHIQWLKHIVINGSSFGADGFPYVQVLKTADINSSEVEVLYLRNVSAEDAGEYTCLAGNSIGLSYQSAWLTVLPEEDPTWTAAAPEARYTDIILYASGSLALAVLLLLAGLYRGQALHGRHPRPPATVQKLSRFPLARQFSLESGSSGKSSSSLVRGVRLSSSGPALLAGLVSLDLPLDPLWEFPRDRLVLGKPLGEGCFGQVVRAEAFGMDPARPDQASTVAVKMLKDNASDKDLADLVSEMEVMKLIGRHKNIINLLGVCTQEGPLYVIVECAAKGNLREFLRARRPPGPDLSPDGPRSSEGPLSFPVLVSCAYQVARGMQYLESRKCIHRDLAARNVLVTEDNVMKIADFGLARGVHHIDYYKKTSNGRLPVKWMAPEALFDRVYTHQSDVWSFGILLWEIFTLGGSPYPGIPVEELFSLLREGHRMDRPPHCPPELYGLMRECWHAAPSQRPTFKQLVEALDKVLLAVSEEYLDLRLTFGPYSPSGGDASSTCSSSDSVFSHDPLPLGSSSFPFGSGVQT
procedure_details: 33P isotope-labeled kinase activity test, FGFR4
Format: biochemical
experimental_conditions: ATP 100 μM
Structures can show the parent of a compound that is named as a salt.
measured_attribute: log10 of IC50 (log10 of the value in nM)

compound: COc1cc(OC)c(F)c(Cc2c[nH]c3ncc(-c4cnc5c(c4)CNCC5)cc23)c1F [Trifluoroacetate salt of embodiment 52]
log10 of IC50: 1.14

compound: COc1cc(OC)c(F)c(Cc2c[nH]c3ncc(-c4cnn(CC(C)(C)O)c4)cc23)c1F [Trifluoroacetate salt of embodiment 66]
log10 of IC50: 0.95

compound: COc1cc(OC)c(F)c(Cc2c[nH]c3ncc(-c4cnn(CCNC(C)C)c4)cc23)c1F [Hydrochloride of embodiment 68]
log10 of IC50: 1.00

compound: CCN1CCC(n2cc(-c3cnc4[nH]cc(Cc5c(F)c(OC)cc(OC)c5F)c4n3)cn2)CC1 [Trifluoroacetate salt of embodiment 6]
log10 of IC50: 1.18

compound: CCN1CCC(n2cc(-c3cnc4[nH]cc(Cc5c(F)c(OC)cc(OC)c5F)c4c3)c(C#N)n2)CC1 [Hydrochloride of embodiment 42]
log10 of IC50: 1.01

compound: COc1cc(OC)c(F)c(Cc2c[nH]c3ncc(-c4cnn(C5CN(CCO)C5)c4)cc23)c1F [Trifluoroacetate salt of embodiment 27]
log10 of IC50: 1.12

compound: CCN(CC)CCn1cc(-c2cnc3[nH]cc(Cc4c(F)c(OC)cc(OC)c4F)c3c2)cn1 [Hydrochloride of embodiment 69]
log10 of IC50: 0.92

compound: COc1cc(OC)c(F)c(Cc2c[nH]c3ncc(-c4cnn(C5CNC5)c4)cc23)c1F [Trifluoroacetate salt of embodiment 24]
log10 of IC50: 2.40

compound: COc1cc(OC)c(F)c(Cc2c[nH]c3ncc(-c4cnn(CCCNC(C)C)c4)cc23)c1F [Hydrochloride of embodiment 72]
log10 of IC50: 1.73

compound: COc1cc(OC)c(F)c(Cc2c[nH]c3ncc(-c4cnn(C5CCN(C)CC5)c4)cc23)c1F [Trifluoroacetate salt of embodiment 13]
log10 of IC50: 0.95

compound: CCN1CCC(n2cc(-c3cnc4[nH]cc(Cc5c(F)c(OC)cc(OC)c5F)c4c3)cn2)CC1 [Trifluoroacetate salt of embodiment 12]
log10 of IC50: 1.56

compound: CCN1CCC(c2cncc(-c3cnc4[nH]cc(Cc5c(F)c(OC)cc(OC)c5F)c4c3)n2)CC1 [Hydrochloride of embodiment 65]
log10 of IC50: 0.43

compound: COc1cc(OC)c(F)c(Cc2c[nH]c3ncc(-c4cnc5c(c4)CNC5)cc23)c1F [Trifluoroacetate salt of embodiment 50]
log10 of IC50: 0.64

compound: COc1cc(OC)c(F)c(Cc2c[nH]c3ncc(-c4cnn(C5CCN(C(C)C)CC5)c4)cc23)c1F [Trifluoroacetate salt of embodiment 14]
log10 of IC50: 1.44

compound: COc1cc(OC)c(F)c(Cc2c[nH]c3ncc(-c4ccnc(N5CCN(C)CC5)c4)cc23)c1F
log10 of IC50: 0.99

compound: COc1cc(OC)c(F)c(Cc2c[nH]c3ncc(-c4cnn(CCS(C)(=O)=O)c4)cc23)c1F [Trifluoroacetate salt of embodiment 76]
log10 of IC50: 0.59

compound: CCN1CCC(n2cc(-c3cnc4[nH]cc(Cc5c(F)ccc(OC)c5F)c4c3)cn2)CC1
log10 of IC50: 2.78

compound: COc1cc(OC)c(F)c(Cc2c[nH]c3ncc(-c4cnn(CC(O)CNC(C)C)c4)cc23)c1F (stereo not shown) [Hydrochloride of embodiment 71]
log10 of IC50: 0.69
